target: unrelated Fc-fused recombinant protein; test: ELISA, lysate on plate-bound antigen
Assign ELISA Fc Control (RSU) to each entry below.
Record the value in RSU, omitting the unit from your answer.

Fill in: ELISA Fc Control (RSU) of ISOP194ER9P1A3 (designed binder, not shown: small tags and cut ends, FN3 domain; E. coli lysate in the ELISA) LPAPKNLVVSRVTEDSARLSWTAPDAAFDSFRIAYYETMVSGEAIVLTVPGSERSYDLTGLKPGTEYAVIIKGVKGGMVSWPLSAIFTT is ___ 560

What about this binder? ISOP194HR9P1B2 (designed binder, not shown: small tags and cut ends, FN3 domain; E. coli lysate in the ELISA) LPAPKNLVVSRVTEDSARLSWTAPDAAFDSFSILYGELIGDGEAIVLTVPGSERSYDLTGLKPGSEYTVYIFGVKGGRYSRPLSAIFTT 400

Same thing, different binder: ISOP121HR5P1H2 (designed binder, not shown: small tags and cut ends, FN3 domain; E. coli lysate in the ELISA) LPAPKNLVVSRVTEDSARLSWTAPDAAFDSFDIYYLEYDYSGEAIVLTVPGSERSYDLTGLKPGTEYDVLIIGVKGGSLSTPLSAIFTT 720

Try this binder too: ISOP121BR5P1B7 (designed binder, not shown: small tags and cut ends, FN3 domain; E. coli lysate in the ELISA) LPAPKNLVVSRITEDSARLSWKWEEGFFDSFLIQYQESEKVGEAIVLTVPGSERSYDLTGLKPGTEYTVSIYGVYQRHASAFVSNPLSAIFTT 640
